Cited source for all entries: patent US7642283B2

- system-under-test: MPTP (Rattus norvegicus)
- Construct: other: n=2; glutamate/malate; other: glutamate/malate; 20 min; mean±SEM; unit not given; other: 300 nM; relieved by 50 μM Ub5
- protocol-description: Ca2+-induced swelling (MPTP) in rat liver mitochondria energised with succinate
- conditions-used: succinate 5 mM + 2 μM rotenone; 80 μM Ca2+; ΔA540 20 min after CaCl2
quantity-measured: EC50 (µM)
# number only, unit µM dropped from output

Dear colleague, I am looking for the recorded EC50 of the following molecule: CN1CCN(CCCN2c3ccccc3Sc3ccc(C(F)(F)F)cc32)CC1 [Trifluoroperazine] 9.4

Please report the recorded EC50 for COC1=C(OC)C(=O)C(C)=CC1=O [Ubiquinone0] . 23.2

# get_value(readout='EC50', item= CO[C@H](C/C=C\C=C\CC/C=C/C[C@H](C)/C=C/C(=C\C(=O)O)CC(=O)O)/C(C)=C\C=C(/C)C(=O)O [Bongkrekic acid] ) 11.5

---

- system-under-test: MPTP (Rattus norvegicus, UniProt Q9Z2L0)
- Construct: other: n=2; glutamate/malate; other: glutamate/malate; 20 min; mean±SEM; unit not given; other: 300 nM; relieved by 50 μM Ub5
- Sequence (Q9Z2L0 2-283): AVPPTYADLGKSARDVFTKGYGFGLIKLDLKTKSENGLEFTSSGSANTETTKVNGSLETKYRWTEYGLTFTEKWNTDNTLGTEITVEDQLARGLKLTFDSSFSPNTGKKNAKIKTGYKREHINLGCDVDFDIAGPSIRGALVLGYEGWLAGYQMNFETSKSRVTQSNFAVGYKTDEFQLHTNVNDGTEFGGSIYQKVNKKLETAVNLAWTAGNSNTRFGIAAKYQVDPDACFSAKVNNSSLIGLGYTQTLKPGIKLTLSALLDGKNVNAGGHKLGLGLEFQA
- protocol-description: Ca2+-retention capacity of rat brain mitochondria (Calcium Green-5N)
- Assay type: biochemical
- conditions-used: Ca2+ pulses, rat brain mitochondria
quantity-measured: Additive effect when combined with the spiro compound (Example 2)

Nc1ncnc2c1ncn2[C@@H]1O[C@H](COP(=O)(O)OP(=O)(O)O)[C@@H](O)[C@H]1O ... additive
CO[C@H](C/C=C\C=C\CC/C=C/C[C@H](C)/C=C/C(=C\C(=O)O)CC(=O)O)/C(C)=C\C=C(/C)C(=O)O ... additive
